The measured values listed here are drawn from ChEMBL document CHEMBL1255169.

- SYSTEM TESTED: D(1B) dopamine receptor (Homo sapiens)
READOUT KIND: Ki (nM)
Number in nM, nothing else.

Query: Using the record for CCCCN1CCC(COC(=O)c2cc(Cl)c(NC)c3c2OCCO3)CC1 , report its Ki.
Response: 972

====

- SYSTEM TESTED: Histamine H2 receptor (Cavia porcellus)
- Sequence (P47747 whole entry): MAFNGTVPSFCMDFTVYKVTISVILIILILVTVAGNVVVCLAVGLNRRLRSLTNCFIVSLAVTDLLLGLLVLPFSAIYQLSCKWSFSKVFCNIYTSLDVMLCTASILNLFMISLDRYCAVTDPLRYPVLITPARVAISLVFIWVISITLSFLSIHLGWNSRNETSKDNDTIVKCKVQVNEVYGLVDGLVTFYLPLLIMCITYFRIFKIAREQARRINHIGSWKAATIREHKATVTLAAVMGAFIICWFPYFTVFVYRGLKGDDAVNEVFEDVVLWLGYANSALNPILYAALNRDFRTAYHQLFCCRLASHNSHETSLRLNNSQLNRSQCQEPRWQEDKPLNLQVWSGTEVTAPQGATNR
READOUT KIND: Ki

Query: Using the record for CCCCN1CCC(COC(=O)c2cc(Cl)c(NC)c3c2OCCO3)CC1 , report its Ki.
Response: > 10 µM

====

- SYSTEM TESTED: Sodium-dependent dopamine transporter (Homo sapiens, UniProt Q01959)
READOUT KIND: pKi
Give only the number. pKi is defined as minus log10 of concentration in molar units.

Query: Using the record for CCCCN1CCC(COC(=O)c2cc(Cl)c(NC)c3c2OCCO3)CC1 , report its pKi.
Response: 5.69

====

- SYSTEM TESTED: Muscarinic acetylcholine receptor M5 (Homo sapiens, UniProt P08912)
- Sequence (P08912 whole entry): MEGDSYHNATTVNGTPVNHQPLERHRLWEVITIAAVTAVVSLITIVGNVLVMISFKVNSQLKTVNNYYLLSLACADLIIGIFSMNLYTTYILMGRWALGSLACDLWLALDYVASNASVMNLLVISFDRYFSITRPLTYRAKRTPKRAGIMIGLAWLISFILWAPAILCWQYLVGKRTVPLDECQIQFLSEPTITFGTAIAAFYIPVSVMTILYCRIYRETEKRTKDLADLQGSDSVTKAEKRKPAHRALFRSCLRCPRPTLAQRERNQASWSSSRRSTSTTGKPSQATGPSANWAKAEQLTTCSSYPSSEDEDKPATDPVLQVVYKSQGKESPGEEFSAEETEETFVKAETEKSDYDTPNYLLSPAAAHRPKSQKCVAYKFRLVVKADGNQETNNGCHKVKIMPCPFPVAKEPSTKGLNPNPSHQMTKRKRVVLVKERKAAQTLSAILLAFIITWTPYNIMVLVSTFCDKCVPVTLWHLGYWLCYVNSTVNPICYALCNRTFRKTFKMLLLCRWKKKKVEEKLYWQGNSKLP
READOUT KIND: Ki (nM)
Number in nM, nothing else.

Query: Using the record for CCCCN1CCC(COC(=O)c2cc(Cl)c(NC)c3c2OCCO3)CC1 , report its Ki.
Response: 972

====

- SYSTEM TESTED: 5-hydroxytryptamine receptor 5A (Homo sapiens, UniProt P47898)
- Sequence (P47898 whole entry): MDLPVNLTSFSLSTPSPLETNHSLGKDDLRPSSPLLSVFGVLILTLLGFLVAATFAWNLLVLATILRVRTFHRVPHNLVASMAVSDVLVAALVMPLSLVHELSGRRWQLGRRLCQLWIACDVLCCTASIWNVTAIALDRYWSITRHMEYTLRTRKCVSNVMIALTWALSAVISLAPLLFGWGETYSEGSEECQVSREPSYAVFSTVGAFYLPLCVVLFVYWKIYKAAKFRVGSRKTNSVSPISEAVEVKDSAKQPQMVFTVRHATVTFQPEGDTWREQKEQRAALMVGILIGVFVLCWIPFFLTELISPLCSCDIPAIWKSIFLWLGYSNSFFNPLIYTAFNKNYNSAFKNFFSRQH
READOUT KIND: Ki
Please report the result as a number followed by the unit.

Query: Using the record for CCCCN1CCC(COC(=O)c2cc(Cl)c(NC)c3c2OCCO3)CC1 , report its Ki.
Response: 8.59 µM

====

Observed pKi for Mu-type opioid receptor (Homo sapiens, UniProt P35372), reported per entry below.
pKi: −log10 of the molar value.

{"columns": ["COMPOUND STRUCTURE STRING", "RECORDED VALUE"],
 "data": [
  ["CCCCN1CCC(COC(=O)c2cc(Cl)c(NC)c3c2OCCO3)CC1", "< 5.00"]
]}

Kindly review the next compound as well.
Query: Using the record for CCCCN1CCC(COC(=O)c2ccc(N)c(OC)c2)CC1 , report its pKi.
Response: < 5.00

====

- SYSTEM TESTED: D(3) dopamine receptor (Rattus norvegicus, UniProt P19020)
- Sequence (P19020 whole entry): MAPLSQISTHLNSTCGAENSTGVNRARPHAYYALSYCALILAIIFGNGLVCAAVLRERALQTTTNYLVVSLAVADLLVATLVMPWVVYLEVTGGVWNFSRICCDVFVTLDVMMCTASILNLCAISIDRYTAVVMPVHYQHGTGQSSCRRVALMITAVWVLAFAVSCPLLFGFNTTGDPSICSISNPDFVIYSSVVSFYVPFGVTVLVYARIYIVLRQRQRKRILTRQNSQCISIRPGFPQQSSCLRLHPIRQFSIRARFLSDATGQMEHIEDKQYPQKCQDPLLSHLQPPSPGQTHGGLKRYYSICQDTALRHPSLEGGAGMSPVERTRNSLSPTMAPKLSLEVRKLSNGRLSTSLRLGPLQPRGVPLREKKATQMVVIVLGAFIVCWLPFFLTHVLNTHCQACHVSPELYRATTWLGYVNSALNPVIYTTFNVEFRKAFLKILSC
// reported Ki per item
Number in nM, nothing else.

Query: Using the record for CCCCN1CCC(COC(=O)c2cc(Cl)c(NC)c3c2OCCO3)CC1 , report its Ki.
Response: 336

Query: Another compound to check: CCCCN1CCC(COC(=O)c2cc(F)c(N)c3c2OCCO3)CC1
Response: 1010

====

- SYSTEM TESTED: Sodium-dependent serotonin transporter (Homo sapiens, UniProt P31645)
- Sequence (P31645 whole entry): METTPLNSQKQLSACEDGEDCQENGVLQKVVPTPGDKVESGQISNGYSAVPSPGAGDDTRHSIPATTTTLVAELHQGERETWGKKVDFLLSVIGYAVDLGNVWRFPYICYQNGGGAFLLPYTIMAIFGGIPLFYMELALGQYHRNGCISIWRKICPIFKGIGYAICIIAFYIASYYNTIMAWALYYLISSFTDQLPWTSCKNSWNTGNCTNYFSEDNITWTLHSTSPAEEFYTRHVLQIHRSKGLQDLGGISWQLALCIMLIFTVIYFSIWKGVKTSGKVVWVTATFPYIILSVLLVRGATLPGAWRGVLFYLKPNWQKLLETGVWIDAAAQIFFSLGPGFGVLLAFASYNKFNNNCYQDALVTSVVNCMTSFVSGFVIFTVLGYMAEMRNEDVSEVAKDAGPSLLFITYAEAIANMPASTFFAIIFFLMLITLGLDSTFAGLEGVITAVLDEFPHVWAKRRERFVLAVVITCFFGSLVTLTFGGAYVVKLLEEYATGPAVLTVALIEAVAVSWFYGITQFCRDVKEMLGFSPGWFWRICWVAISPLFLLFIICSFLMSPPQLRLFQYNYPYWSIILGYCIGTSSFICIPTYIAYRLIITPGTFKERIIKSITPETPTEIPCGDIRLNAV
READOUT KIND: pKi
Give only the number. pKi is defined as minus log10 of concentration in molar units.

Query: Using the record for CCCCN1CCC(COC(=O)c2cc(Cl)c(NC)c3c2OCCO3)CC1 , report its pKi.
Response: 5.05

====

- SYSTEM TESTED: D(2) dopamine receptor (Rattus norvegicus)
- Sequence (P61169 whole entry): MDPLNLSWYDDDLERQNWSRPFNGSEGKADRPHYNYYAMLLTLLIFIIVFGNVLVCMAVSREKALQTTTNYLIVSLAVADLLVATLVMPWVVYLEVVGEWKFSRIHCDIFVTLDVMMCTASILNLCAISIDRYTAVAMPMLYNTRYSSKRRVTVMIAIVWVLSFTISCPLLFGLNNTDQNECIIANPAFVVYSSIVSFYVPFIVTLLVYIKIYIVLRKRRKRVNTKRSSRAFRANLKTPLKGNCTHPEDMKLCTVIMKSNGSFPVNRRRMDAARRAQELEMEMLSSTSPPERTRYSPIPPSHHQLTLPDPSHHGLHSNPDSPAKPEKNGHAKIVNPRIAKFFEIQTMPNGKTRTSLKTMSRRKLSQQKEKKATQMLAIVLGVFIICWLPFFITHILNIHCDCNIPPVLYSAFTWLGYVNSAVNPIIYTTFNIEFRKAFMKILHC
- ASSAY NAME: Binding affinity to rat dopamine D2 receptor
// reported pKi per item
Give only the number. pKi is defined as minus log10 of concentration in molar units.

{"columns": ["COMPOUND STRUCTURE STRING", "SYSTEM TESTED", "RECORDED VALUE"],
 "data": [
  ["CCCCN1CCC(COC(=O)c2cc(F)c(N)c3c2OCCO3)CC1", "D(2) dopamine receptor (Rattus norvegicus)", 6.21]
]}

Kindly review the next compound as well.
Query: Using the record for CCCCN1CCC(COC(=O)c2cc(Cl)c(NC)c3c2OCCO3)CC1 , report its pKi.
Response: 6.66

====

- SYSTEM TESTED: Sodium-dependent noradrenaline transporter (Homo sapiens, UniProt P23975)
- Sequence (P23975 whole entry): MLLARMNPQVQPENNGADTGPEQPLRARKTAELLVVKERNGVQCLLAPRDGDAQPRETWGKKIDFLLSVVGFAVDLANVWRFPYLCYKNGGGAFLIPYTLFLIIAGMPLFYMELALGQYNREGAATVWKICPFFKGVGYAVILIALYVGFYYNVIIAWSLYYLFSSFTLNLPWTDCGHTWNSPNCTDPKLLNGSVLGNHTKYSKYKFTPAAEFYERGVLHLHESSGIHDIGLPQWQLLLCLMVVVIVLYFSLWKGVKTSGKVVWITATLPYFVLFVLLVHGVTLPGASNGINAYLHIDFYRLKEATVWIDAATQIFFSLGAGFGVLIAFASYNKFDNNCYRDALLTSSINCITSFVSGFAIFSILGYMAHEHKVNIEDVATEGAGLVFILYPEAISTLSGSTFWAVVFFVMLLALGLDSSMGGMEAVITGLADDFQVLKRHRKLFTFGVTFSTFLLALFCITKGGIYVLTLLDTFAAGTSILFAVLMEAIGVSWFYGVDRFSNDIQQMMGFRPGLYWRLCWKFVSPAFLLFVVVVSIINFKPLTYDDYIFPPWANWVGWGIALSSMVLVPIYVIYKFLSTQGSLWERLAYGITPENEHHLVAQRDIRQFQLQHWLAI
READOUT KIND: pKi
Give only the number. pKi is defined as minus log10 of concentration in molar units.

Query: Form: Entry = CCCCN1CCC(COC(=O)c2cc(Cl)c(NC)c3c2OCCO3)CC1 | System = Sodium-dependent noradrenaline transporter (Homo sapiens, UniProt P23975) | pKi = ____
Response: 5.49

====

- ASSAY NAME: Binding affinity to rat sigma 2 receptor
// reported Ki per item
Number in nM, nothing else.

Here's what some known entries look like.
{"columns": ["COMPOUND STRUCTURE STRING", "READOUT KIND", "RECORDED VALUE"],
 "data": [
  ["CCCCN1CCC(COC(=O)c2ccc(N)c(OC)c2)CC1", "Ki", 148],
  ["CCCCN1CCC(COC(=O)c2cc(F)c(N)c3c2OCCO3)CC1", "Ki", 12.9]
]}

Kindly review the next molecule as well.
Query: Using the record for CCCCN1CCC(COC(=O)c2cc(Cl)c(NC)c3c2OCCO3)CC1 , report its Ki.
Response: 8

====

Observed Ki for UniProtKB P26255, reported per entry below.
Sequence (P26255 whole entry): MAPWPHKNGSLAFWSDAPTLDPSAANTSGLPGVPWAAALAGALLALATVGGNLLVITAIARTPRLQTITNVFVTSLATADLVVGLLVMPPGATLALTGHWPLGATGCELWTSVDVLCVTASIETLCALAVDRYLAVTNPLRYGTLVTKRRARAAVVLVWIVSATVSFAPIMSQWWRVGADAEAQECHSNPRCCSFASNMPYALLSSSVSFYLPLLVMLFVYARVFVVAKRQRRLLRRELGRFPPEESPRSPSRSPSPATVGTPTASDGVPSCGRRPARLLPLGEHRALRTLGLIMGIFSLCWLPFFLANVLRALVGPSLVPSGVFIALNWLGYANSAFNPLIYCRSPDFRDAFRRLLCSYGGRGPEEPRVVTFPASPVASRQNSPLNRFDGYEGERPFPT

{"columns": ["COMPOUND STRUCTURE STRING", "Ki"],
 "data": [
  ["CCCCN1CCC(COC(=O)c2ccc(N)c(OC)c2)CC1", "> 10 µM"]
]}

Kindly review the next compound as well.
Query: Using the record for CCCCN1CCC(COC(=O)c2cc(Cl)c(NC)c3c2OCCO3)CC1 , report its Ki.
Response: > 10 µM

====

- SYSTEM TESTED: 5-hydroxytryptamine receptor 4 (Homo sapiens)
- Sequence (Q13639 whole entry): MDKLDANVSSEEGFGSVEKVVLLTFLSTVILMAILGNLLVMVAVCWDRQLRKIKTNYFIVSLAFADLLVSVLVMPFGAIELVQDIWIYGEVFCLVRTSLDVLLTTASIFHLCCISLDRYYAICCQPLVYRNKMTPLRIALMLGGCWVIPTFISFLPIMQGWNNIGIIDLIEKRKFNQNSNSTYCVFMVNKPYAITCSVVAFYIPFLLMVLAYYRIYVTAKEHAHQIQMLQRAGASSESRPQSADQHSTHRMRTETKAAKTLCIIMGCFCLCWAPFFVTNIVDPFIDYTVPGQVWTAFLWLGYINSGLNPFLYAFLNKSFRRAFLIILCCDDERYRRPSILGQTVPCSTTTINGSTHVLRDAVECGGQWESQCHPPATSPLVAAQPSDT
- ASSAY NAME: Agonist activity at 5HT4 receptor expressed in HEK293/L9 cells by cAMP assay
READOUT KIND: pEC50
Give only the number. pEC50 is defined as minus log10 of concentration in molar units.

Here's what some known entries look like.
{"columns": ["COMPOUND STRUCTURE STRING", "READOUT KIND", "RECORDED VALUE"],
 "data": [
  ["CCCCN1CCC(COC(=O)c2cc(F)c(N)c3c2OCCO3)CC1", "pEC50", 8.23],
  ["CCCCN1CCC(COC(=O)c2ccc(NC)c3c2OCCO3)CC1", "pEC50", 8.05],
  ["CCCCN1CCC(COC(=O)c2cc(Br)c(NC)c3c2OCCO3)CC1", "pEC50", 8.00],
  ["CCCCN1CCC(COC(=O)c2cc(C#N)c(NC)c3c2OCCO3)CC1", "pEC50", 7.80]
]}

Query: Form: Entry = CCCCN1CCC(COC(=O)c2cc(I)c(NC)c3c2OCCO3)CC1 | System = 5-hydroxytryptamine receptor 4 (Homo sapiens) | pEC50 = ____
Response: 7.70

Query: Another molecule to check: CCCCN1CCC(COC(=O)c2cc(Cl)c(NC)c3c2OCCO3)CC1
Response: 7.85

====

Observed pKi for Histamine H3 receptor (Cavia porcellus), reported per entry below.
Give only the number. pKi is defined as minus log10 of concentration in molar units.

{"columns": ["COMPOUND STRUCTURE STRING", "RECORDED VALUE"],
 "data": [
  ["CCCCN1CCC(COC(=O)c2cc(F)c(N)c3c2OCCO3)CC1", 5.30]
]}

Query: Using the record for CCCCN1CCC(COC(=O)c2ccc(N)c(OC)c2)CC1 , report its pKi.
Response: 5.78

====

Observed Ki for 5-hydroxytryptamine receptor 4 (Cavia porcellus, UniProt O70528), reported per entry below.
Number in nM, nothing else.

{"columns": ["COMPOUND STRUCTURE STRING", "Ki (nM)"],
 "data": [
  ["CCCCN1CCC(COC(=O)c2cc(I)c(N)c3c2OCCO3)CC1", 0.2],
  ["CCCCN1CCC(COC(=O)c2ccc(N)c(OCCF)c2)CC1", 0.215],
  ["CCCCN1CCC(COC(=O)c2cc(Cl)c(NC)c3c2OCCO3)CC1", 0.577]
]}

Kindly review the next compound as well.
Query: Using the record for CCCCN1CCC(COC(=O)c2cc(C#N)c(N)c3c2OCCO3)CC1 , report its Ki.
Response: 0.45

====

- SYSTEM TESTED: Delta-type opioid receptor (Homo sapiens, UniProt P41143)
- Sequence (P41143 whole entry): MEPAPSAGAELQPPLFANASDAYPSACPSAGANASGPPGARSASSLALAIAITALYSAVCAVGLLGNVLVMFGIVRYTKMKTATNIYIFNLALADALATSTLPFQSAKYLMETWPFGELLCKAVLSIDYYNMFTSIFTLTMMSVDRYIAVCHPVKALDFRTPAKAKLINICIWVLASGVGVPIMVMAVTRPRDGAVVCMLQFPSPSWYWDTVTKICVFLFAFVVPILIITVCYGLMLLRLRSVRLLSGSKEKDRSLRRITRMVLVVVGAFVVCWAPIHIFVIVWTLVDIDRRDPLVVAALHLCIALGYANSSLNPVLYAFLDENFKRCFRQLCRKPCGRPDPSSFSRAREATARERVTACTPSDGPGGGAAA
- ASSAY NAME: Binding affinity to human delta opioid receptor
pKi: −log10 of the molar value.
// reported pKi per item

{"columns": ["COMPOUND STRUCTURE STRING", "pKi"],
 "data": [
  ["CCCCN1CCC(COC(=O)c2ccc(N)c(OC)c2)CC1", "< 5.00"]
]}

Kindly review the next molecule as well.
Query: Form: Entry = CCCCN1CCC(COC(=O)c2cc(Cl)c(NC)c3c2OCCO3)CC1 | System = Delta-type opioid receptor (Homo sapiens, UniProt P41143) | pKi = ____
Response: < 5.00

====

- SYSTEM TESTED: 5-hydroxytryptamine receptor 2C (Homo sapiens, UniProt P28335)
- Sequence (P28335 whole entry): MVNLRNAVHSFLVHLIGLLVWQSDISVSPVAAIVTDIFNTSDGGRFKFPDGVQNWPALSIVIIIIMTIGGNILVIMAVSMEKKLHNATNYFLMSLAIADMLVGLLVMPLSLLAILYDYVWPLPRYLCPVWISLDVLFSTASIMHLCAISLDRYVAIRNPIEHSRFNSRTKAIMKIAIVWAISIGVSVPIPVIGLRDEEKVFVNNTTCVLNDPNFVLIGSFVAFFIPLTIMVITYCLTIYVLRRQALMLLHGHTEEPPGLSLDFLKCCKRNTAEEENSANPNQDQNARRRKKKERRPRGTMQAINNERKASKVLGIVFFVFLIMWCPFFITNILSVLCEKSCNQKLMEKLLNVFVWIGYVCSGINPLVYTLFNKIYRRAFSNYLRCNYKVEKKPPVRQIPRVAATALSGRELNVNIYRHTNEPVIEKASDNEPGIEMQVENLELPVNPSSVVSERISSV
// reported pKi per item
Give only the number. pKi is defined as minus log10 of concentration in molar units.

{"columns": ["COMPOUND STRUCTURE STRING", "pKi"],
 "data": [
  ["CCCCN1CCC(COC(=O)c2cc(F)c(N)c3c2OCCO3)CC1", 5.08]
]}

Kindly review the next compound as well.
Query: Using the record for CCCCN1CCC(COC(=O)c2cc(Cl)c(NC)c3c2OCCO3)CC1 , report its pKi.
Response: 6.16
